B1: TRIM43 (parent)
chain: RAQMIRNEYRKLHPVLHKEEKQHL

- Variants of: B1
- protocol text: protein stability index of a GFP-peptide fusion (GPS, HEK-293T) (PSI 1-6); higher = more stable;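 further: lentivirally expressed fusions sorted by FACS into six bins by GFP to DsRed ratio, PSI derived from sequencing read proportions per bin multiplied by bin number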
- assay context: c terminus: a fixed tail appended
Given measured protein stability index, output True if it is greater than or equal to 3 and False if not.

variant key: P14Y
class name: False

variant key: A2N
class name: True

variant key: R6W
class name: False

Quick check: does `L12D` have protein stability index greater than or equal to 3? True

Quick check: does `L24G` have protein stability index greater than or equal to 3? True

Quick check: does `E8I` have protein stability index greater than or equal to 3? False
